# Assay details: HSF-1 activators, primary screen, NIH3T3-HGL cells, MG132 stress, luminescence, single point (AID 504408);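 further: 0% = median of the neutral control wells and 100% = twice that signal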
# Experimental context: NIH3T3-HGL HSF-1 luciferase reporter, MG132, 8 h; at 9 µM; hits give high values; 100% = twice DMSO control signal
In all, about 300,000 compounds went through this assay and about 5,200 (1.7%) were called active. The sample as a whole holds a higher share of actives than the screen did.
Quantity name: activation (%)
Output spec: scalar in %, unitless text.

Some compounds with recorded activation:
Prompt: State its activation: `COc1ccc(C(=O)Nc2c(Cl)cc(Cl)cc2C(=O)N2CCC(C)CC2)cc1`
Completion: 18

Prompt: State its activation: `O=C(Nc1ccccc1)OCc1cn(-c2ccc(Cl)cc2)nn1`
Completion: -2.71

Prompt: State its activation: `CCOC(=O)c1ccc(Nc2cc3ccccc3c(=O)[nH]2)cc1`
Completion: -14.6

---
Prompt: State its activation: `O=C(CSc1nnc2scc(-c3ccc(F)cc3)n12)NCc1ccco1`
Completion: -1.83

Prompt: State its activation: Cc1ccc(C2=NN(C(=O)CSc3nc(N)cc(N)n3)C(c3ccco3)C2)cc1 (stereo not drawn)
Completion: 22.7

Prompt: State its activation: `O=C(c1cc(-c2ccco2)nc2ccccc12)N(Cc1nnc(-c2ccc(Cl)cc2)o1)C1CC1`
Completion: 16.1

Prompt: State its activation: `CCc1c(C)sc(NC(=O)c2cccs2)c1C(N)=O`
Completion: 39.5

Prompt: State its activation: `CCc1c(C)sc(NC(=O)c2ccc(Br)o2)c1C(=O)OC`
Completion: 64.8
